Recorded pIC50, one value per entry.
# Target entity: UniProtKB P23458
# Sequence (P23458 875-1153): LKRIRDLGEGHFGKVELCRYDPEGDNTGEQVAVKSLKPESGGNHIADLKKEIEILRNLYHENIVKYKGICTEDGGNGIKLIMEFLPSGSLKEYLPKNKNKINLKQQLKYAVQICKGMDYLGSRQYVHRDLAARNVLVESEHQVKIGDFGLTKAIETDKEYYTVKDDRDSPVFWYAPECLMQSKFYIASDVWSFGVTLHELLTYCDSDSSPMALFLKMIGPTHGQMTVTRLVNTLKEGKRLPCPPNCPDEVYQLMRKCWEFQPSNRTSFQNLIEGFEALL
# Assay procedure: Jak Biochemical HTRF Assay, JAK1
# Condition info: HTRF biochemical assay, GST-tagged catalytic domain; top concentration tested […]; read-out: JAK1 IC50
# Source text: Jak Biochemical HTRF Assay Protocol Subsequent reagent additions employed an Agilent Bravo.
pIC50: −log10 of the molar value.
Measurement type: pIC50

INSERT INTO measurements (compound, assay_result) VALUES
  ('N#CCC1(n2cc(C(N)=O)c(Nc3cncc(F)c3)n2)CCN(C(=O)OCC(F)F)CC1', 9.00),
  ('N#CCCCN1CCC(CC#N)(n2cc(C(N)=O)c(Nc3ccccc3)n2)CC1', 7.34),
  ('N#CCC1(n2cc(C(N)=O)c(Nc3ccccc3)n2)CCN(Cc2c(F)ccc(F)c2F)CC1', 9.15),
  ('N#CCC1(n2cc(C(N)=O)c(Nc3ccc(S(=O)(=O)C(F)F)cc3)n2)CCC(N2CCC(F)(F)CC2)CC1 (stereo not shown) [Example 40-42]', 7.19),
  ('N#CCC1(n2cc(C(N)=O)c(Nc3ccc(F)cc3)n2)CCN(c2ccc(F)nc2)CC1', 9.40),
  ('N#CCC1(n2cc(C(N)=O)c(Nc3ccnc(F)c3)n2)CCN(Cc2cc3ccccc3[nH]2)CC1', 9.70),
  ('N#CC[C@]1(n2cc(C(N)=O)c(Nc3ccnc(F)c3)n2)CC[C@@H](NS(=O)(=O)c2cccc(F)c2)CC1', 8.10);
